meta.source: patent US20070249686A1

targetUnderTest: CRTh2 (Homo sapiens)
Sequence (Q9Y5Y4 1-395): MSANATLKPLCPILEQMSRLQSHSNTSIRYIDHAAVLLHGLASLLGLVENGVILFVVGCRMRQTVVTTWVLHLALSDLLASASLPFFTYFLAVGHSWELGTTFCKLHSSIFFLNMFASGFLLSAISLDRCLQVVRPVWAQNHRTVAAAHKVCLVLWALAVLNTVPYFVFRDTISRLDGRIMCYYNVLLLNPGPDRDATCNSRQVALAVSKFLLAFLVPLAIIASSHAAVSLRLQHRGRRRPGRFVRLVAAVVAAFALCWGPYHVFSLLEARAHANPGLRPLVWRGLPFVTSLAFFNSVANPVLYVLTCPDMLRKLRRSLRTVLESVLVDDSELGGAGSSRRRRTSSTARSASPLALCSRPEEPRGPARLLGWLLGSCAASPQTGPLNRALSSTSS
pIC50: −log10 of the molar value.
propertyName: pIC50

A: CCS(=O)(=O)c1ccc(-c2nc(C)ccc2OCC(=O)O)c(C)c1 [Example 11]
B: CS(=O)(=O)c1ccc(-c2cc(C(F)(F)F)ccc2CCC(=O)O)cc1C(F)(F)F [Example 31]
Q: Of the two listed items, which has the higher pIC50? First: A Second: B Kindly give the label for the entry you pick.
Ans: B
